Attribution: patent US20250179000A1

So I've got a bunch of molecules here, and I need their EC50 values.
Target: Rat mGlu2 (Rattus norvegicus)
Sequence (P31421 19-872): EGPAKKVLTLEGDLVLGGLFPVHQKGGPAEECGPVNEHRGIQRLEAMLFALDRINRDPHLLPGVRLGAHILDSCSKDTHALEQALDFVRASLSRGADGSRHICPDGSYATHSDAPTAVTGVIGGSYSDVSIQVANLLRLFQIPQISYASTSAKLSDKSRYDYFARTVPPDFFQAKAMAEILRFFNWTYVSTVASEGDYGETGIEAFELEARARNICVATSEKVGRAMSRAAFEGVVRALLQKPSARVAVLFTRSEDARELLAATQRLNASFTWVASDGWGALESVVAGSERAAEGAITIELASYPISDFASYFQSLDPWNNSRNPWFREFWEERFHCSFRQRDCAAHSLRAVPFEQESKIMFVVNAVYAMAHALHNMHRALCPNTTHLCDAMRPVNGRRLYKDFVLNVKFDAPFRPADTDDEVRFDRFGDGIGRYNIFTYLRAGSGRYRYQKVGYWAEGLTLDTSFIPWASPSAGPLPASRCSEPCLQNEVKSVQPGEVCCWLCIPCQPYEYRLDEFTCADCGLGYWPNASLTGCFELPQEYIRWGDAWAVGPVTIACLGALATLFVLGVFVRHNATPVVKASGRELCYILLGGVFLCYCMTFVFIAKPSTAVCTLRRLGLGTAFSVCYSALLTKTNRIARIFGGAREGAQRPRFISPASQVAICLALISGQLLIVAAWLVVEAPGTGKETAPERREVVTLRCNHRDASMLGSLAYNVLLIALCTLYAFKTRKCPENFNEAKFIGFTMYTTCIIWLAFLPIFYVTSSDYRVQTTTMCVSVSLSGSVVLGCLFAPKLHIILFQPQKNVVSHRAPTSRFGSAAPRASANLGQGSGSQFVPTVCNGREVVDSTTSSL
Experiment: mGlu receptor in vitro assay, thallium flux through GIRK channels, rat mGlu2
Conditions: PAM potency with EC20 glutamate
Give bare numbers, in nM.

Worked set:
>  <Molecule>
Cc1c(OCc2cnc(-c3cccc(C(=O)O)c3)cn2)ccc(C(=O)C(C)(C)C)c1O [compound 110]

>  <Measurement target>
Rat mGlu2 (Rattus norvegicus)

>  <EC50, nM>
1040

$$$$
>  <Molecule>
CCCC(=O)c1ccc(OC/C=C/COc2cccc(C(=O)O)c2C)c(C)c1O [Example 8]

>  <Measurement target>
Rat mGlu2 (Rattus norvegicus)

>  <EC50, nM>
19

$$$$
>  <Molecule>
COc1c(C(=O)O)cccc1-c1cnc(COc2ccc(C(=O)CC(C)(C)C)c(O)c2C)cn1 [compound 136]

>  <Measurement target>
Rat mGlu2 (Rattus norvegicus)

>  <EC50, nM>
129

$$$$

Let us examine a further case.
IN: Given the molecule COc1ccc(C(=O)O)cc1OCCOc1ccc(C(=O)CC(C)(C)C)c(O)c1C [compound 93] , what is its reported EC50?
OUT: 207
